Reported values of pIC50 for individual entries
test system: promastigotes of Leishmania mexicana; assay: Leishmanicidal activity, MTT assay on promastigotes; type: cell-based; settings: Leishmania mexicana; L. mexicana promastigotes, 48 h, MTT; read-out: Leishmanicidal Activity IC50
In plain terms, pIC50 is the concentration in mol/L turned into minus its base-10 logarithm.

molecule	value
COc1ccc(C2[C@@]3(C(=O)N(c4ccccc4)N=C3C)[C@]23C(=O)N(c2ccccc2)N=C3C)cc1 (relative stereo) [4e]	5.83
COc1ccccc1C1[C@@]2(C(=O)N(c3ccccc3)N=C2C)[C@]12C(=O)N(c1ccccc1)N=C2C (relative stereo) [4f]	5.65
CC1=NN(c2ccccc2)C(=O)[C@@]12C(c1ccc(OC(F)(F)F)cc1)[C@@]21C(=O)N(c2ccccc2)N=C1C (relative stereo) [4s]	6.72
CC1=NN(c2ccccc2)C(=O)[C@@]12C(c1ccc([N+](=O)[O-])cc1)[C@@]21C(=O)N(c2ccccc2)N=C1C (relative stereo) [4k]	6.52

Entry CC1=NN(c2ccccc2)C(=O)[C@@]12C(c1ccc(C(F)(F)F)cc1)[C@@]21C(=O)N(c2ccccc2)N=C1C (relative stereo) [4r] has what pIC50? 6.72
